Listed here are molecules together with their documented Specific binding.
- ASSAYED SYSTEM: Adenosine receptor A1 (Homo sapiens)
- ASSAY SUMMARY: Inhibition of [3H]CCPA binding to human Adenosine A1 receptor at 10e-7 M
Write the answer as a number in %, unit excluded.

Example results:
[
  {
    "MOLECULE": "CC(C)/N=c1/nc(-c2ccccc2)n(-c2ccccc2)s1",
    "VALUE UNIT": "%",
    "Specific binding": 97
  },
  {
    "MOLECULE": "OCCC/N=c1/nc(-c2ccccc2)n(-c2ccccc2)s1",
    "VALUE UNIT": "%",
    "Specific binding": 106
  },
  {
    "MOLECULE": "Cc1cccc(-n2s/c(=N/CCCO)nc2-c2ccccc2)c1",
    "VALUE UNIT": "%",
    "Specific binding": 97
  },
  {
    "MOLECULE": "C/N=c1/nc(-c2ccccc2)n(-c2cccc(C)c2)s1",
    "VALUE UNIT": "%",
    "Specific binding": 96
  }
]

// fetch Specific binding; item: "CC/N=c1/nc(-c2ccccc2)n(-c2cccc(C)c2)s1" ; system: Adenosine receptor A1 (Homo sapiens)
100

// fetch Specific binding; item: "Cc1cccc(-n2s/c(=N/C3CCCC3)nc2-c2ccccc2)c1" ; system: Adenosine receptor A1 (Homo sapiens)
96

// fetch Specific binding; item: "Cc1cccc(-n2s/c(=N\c3ccccc3)nc2-c2ccccc2)c1" ; system: Adenosine receptor A1 (Homo sapiens)
96

// fetch Specific binding; item: "Cc1cccc(-n2s/c(=N\Cc3ccccc3)nc2-c2ccccc2)c1" ; system: Adenosine receptor A1 (Homo sapiens)
99

// fetch Specific binding; item: "CCCC/N=c1/nc(-c2ccccc2)n(-c2ccccc2)s1" ; system: Adenosine receptor A1 (Homo sapiens)
101

// fetch Specific binding; item: "CCC/N=c1/nc(-c2ccccc2)n(-c2cccc(C)c2)s1" ; system: Adenosine receptor A1 (Homo sapiens)
97

// fetch Specific binding; item: "c1ccc(/N=c2/nc(-c3ccccc3)n(-c3ccccc3)s2)cc1" ; system: Adenosine receptor A1 (Homo sapiens)
104

// fetch Specific binding; item: "CCCC/N=c1/nc(-c2ccccc2)n(-c2cccc(C)c2)s1" ; system: Adenosine receptor A1 (Homo sapiens)
99

// fetch Specific binding; item: "c1ccc(-c2n/c(=N/C3CCCC3)sn2-c2ccccc2)cc1" ; system: Adenosine receptor A1 (Homo sapiens)
100

// fetch Specific binding; item: "Cc1cccc(-n2s/c(=N\C(C)C)nc2-c2ccccc2)c1" ; system: Adenosine receptor A1 (Homo sapiens)
100

// fetch Specific binding; item: "c1ccc(C/N=c2\nc(-c3ccccc3)n(-c3ccccc3)s2)cc1" ; system: Adenosine receptor A1 (Homo sapiens)
101

// fetch Specific binding; item: C/N=c1\nc(C2C=CC=CC2)n(C2C=CC=CC2)s1 (stereo not drawn) ; system: Adenosine receptor A1 (Homo sapiens)
97

// fetch Specific binding; item: "CCC/N=c1/nc(-c2ccccc2)n(-c2ccccc2)s1" ; system: Adenosine receptor A1 (Homo sapiens)
98

// fetch Specific binding; item: "CC/N=c1/nc(-c2ccccc2)n(-c2ccccc2)s1" ; system: Adenosine receptor A1 (Homo sapiens)
99
